Experiment: Microsomal stability
Format: in vitro ADME
Settings: pH 7.4; female mouse microsomes (CD-1), 37°C; read-out: half-life (t1/2)
quantity.name: half-life
Lab note: write values as number then unit, every time.

input: Data request, read-out half-life, for Cc1ccc(-c2cc3nc(NC(C)(C)C)[nH]c(=O)c3s2)cc1 [Metabolite M1]
output: 11 min

###

Assay: MTT cell viability assay, human primary hepatocytes
Assay type: cell-based
quantity.name: CC50 at 5 days

input: Data request, read-out CC50 at 5 days, for Cc1ccc(-c2cc3nc(NC(C)(C)C)[nH]c(=O)c3s2)cc1 [Metabolite M1]
output: > 60 µM

###

Assay: Cytotoxicity on HepG2 cell line (MTT)
Format: cell-based
Settings: human, HepG2 cells
quantity.name: log10 CC50 at 72 h (log10 of the value in µM)
All values: log10 CC50 at 72 h [µM].

Observe how each entry below is paired with its result.
molecule	assay.value
C[C@H]1c2cccc(O)c2C(=O)C2=C(O)[C@]3(O)C(=O)C(C(N)=O)=C(O)[C@@H](N(C)C)[C@@H]3[C@@H](O)[C@@H]21 [Doxycycline, reference compound]	1.30
CC(C)(C)Nc1nc2cc(-c3ccc(CO)cc3)sc2c(=O)[nH]1 [Metabolite 7]	1.40
COc1cccc2c1C(=O)c1c(O)c3c(c(O)c1C2=O)C[C@@](O)(C(=O)CO)C[C@@H]3O[C@H]1C[C@H](N)[C@H](O)[C@H](C)O1 [Doxorubicin, reference compound]	-0.70

input: Data request, read-out log10 CC50 at 72 h, for CC(C)(C)Nc1nc2cc(-c3ccc(C=O)cc3)sc2c(=O)[nH]1 [Metabolite 8]
output: 1.40

input: Data request, read-out log10 CC50 at 72 h, for Cc1ccc(-c2cc3nc(NC(C)(C)C)[nH]c(=O)c3s2)cc1 [Metabolite M1]
output: 1.38

Data credit: paper PMC8557901
